EXPERIMENTAL TARGET: GLS1 (purified recombinant human GAC) (Homo sapiens, UniProt O94925)
Sequence (O94925 55-598 isoform O94925-3 limits assumed): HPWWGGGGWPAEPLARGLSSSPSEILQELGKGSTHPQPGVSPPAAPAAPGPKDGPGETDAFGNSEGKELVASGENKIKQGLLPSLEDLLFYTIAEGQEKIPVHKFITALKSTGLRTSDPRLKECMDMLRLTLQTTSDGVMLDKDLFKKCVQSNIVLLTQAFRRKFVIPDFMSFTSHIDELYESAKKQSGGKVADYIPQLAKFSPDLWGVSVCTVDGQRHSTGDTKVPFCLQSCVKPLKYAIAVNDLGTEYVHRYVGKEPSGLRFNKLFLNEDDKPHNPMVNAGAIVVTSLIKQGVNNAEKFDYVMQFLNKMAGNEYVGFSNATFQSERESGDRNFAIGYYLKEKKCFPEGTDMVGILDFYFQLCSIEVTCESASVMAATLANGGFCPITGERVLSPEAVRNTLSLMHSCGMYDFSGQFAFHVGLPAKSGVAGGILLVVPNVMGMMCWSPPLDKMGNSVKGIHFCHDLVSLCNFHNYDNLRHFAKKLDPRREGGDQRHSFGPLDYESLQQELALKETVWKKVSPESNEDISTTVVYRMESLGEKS
TEST NAME: GLS1 enzymatic activity assay (dual-coupled, Amplex UltraRed/resorufin)
Form field: IC50 (one value per entry).

Some solved entries appear below for comparison.
Q) Fill in the recorded IC50 for this compound, with GLS1 (purified recombinant human GAC) (Homo sapiens, UniProt O94925) as test system: O=C(Cc1ccccc1)Nc1cnn(CCCCn2cc(C(=O)NCc3cccc(OC(F)(F)F)c3)nn2)c(=O)c1 [Example 172]
A) 100 to 500 nM

Q) Checklist item: IC50 tested on GLS1 (purified recombinant human GAC) (Homo sapiens, UniProt O94925), entry O=C(Cc1ccccc1)Nc1ccn(CCCn2cc(C(=O)NCc3cccc(OC(F)(F)F)c3)nn2)c(=O)c1 [Example 436] , value?
A) > 5000 nM

Q) Checklist item: IC50 tested on GLS1 (purified recombinant human GAC) (Homo sapiens, UniProt O94925), entry O=C(CC1CCC1)Nc1ccn(CCC(F)Cn2cc(C(=O)NCc3ccc(C(F)(F)F)cn3)nn2)c(=O)c1F (stereo not shown) [Example 390] , value?
A) 100 to 500 nM

Consider now this further compound.
Q) Lab note: need IC50 with GLS1 (purified recombinant human GAC) (Homo sapiens, UniProt O94925) for entry Cc1ccc(CNC(=O)c2cn(CC(F)CCn3ccc(NC(=O)CC4CCCCC4)cc3=O)nn2)cn1 (stereo not shown) [Example 177] , please look it up.
A) < 100 nM
